- SYSTEM: MLKL (full length) (Homo sapiens (Human), UniProt Q8NB16)
- Sequence (Q8NB16 whole entry): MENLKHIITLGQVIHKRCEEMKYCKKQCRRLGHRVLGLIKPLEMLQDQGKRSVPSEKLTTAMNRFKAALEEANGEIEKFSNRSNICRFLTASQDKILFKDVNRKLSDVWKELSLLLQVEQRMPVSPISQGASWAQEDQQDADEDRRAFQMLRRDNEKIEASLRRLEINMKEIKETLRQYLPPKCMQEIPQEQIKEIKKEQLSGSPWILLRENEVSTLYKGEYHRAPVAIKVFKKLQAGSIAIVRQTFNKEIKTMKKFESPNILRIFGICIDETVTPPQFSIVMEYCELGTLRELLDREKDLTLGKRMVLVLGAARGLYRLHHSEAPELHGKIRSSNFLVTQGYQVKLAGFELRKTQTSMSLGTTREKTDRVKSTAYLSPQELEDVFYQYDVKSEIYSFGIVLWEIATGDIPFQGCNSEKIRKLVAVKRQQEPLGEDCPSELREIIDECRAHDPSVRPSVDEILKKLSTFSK
- PROCEDURE DETAILS: KINOMEscan binding assay, MLKL (full length)
- SETUP CONDITIONS: Table 36
MEASUREMENT KIND: Kd

>>> recorded_measurement("Cc1ncsc1-c1ccc(CNC(=O)[C@@H]2C[C@@H](O)CN2C(=O)[C@@H](NC(=O)CCCCOC(=O)c2ccc(Nc3[nH]nc(-c4ccc(NS(=O)(=O)C(F)F)c(OCc5ccc(F)cc5)c4)c3C(N)=O)nc2)C(C)(C)C)cc1")
"10 to 1000 nM"
>>> recorded_measurement("CCS(=O)(=O)Nc1ccc(-c2n[nH]c(Nc3cnc(OCCCCC(=O)N[C@H](C(=O)N4C[C@H](O)C[C@H]4C(=O)NCc4ccc(-c5scnc5C)cc4)C(C)(C)C)cn3)c2C(N)=O)cc1OCc1ccc(F)cc1")
"< 10 nM"
>>> recorded_measurement("CCS(=O)(=O)Nc1ccc(-c2n[nH]c(Nc3ccc(C(=O)OCCCCC(=O)N[C@H](C(=O)N4CC(O)C[C@H]4C(=O)NCc4ccc(-c5scnc5C)cc4)C(C)(C)C)cn3)c2C(N)=O)cc1O[C@@H](C)c1ccc(F)cc1 (stereo in doubt)")
"10 to 1000 nM"
>>> recorded_measurement("Cc1ncsc1-c1ccc(CNC(=O)[C@@H]2C[C@@H](O)CN2C(=O)[C@@H](NC(=O)COCCOCCn2ccc(Nc3[nH]nc(-c4ccc(NS(=O)(=O)C(F)F)c(O[C@@H](C)c5ccc(F)cc5)c4)c3C(N)=O)n2)C(C)(C)C)cc1")
"< 10 nM"
>>> recorded_measurement("Cc1ncsc1-c1ccc(CNC(=O)[C@@H]2C[C@@H](O)CN2C(=O)[C@@H](NC(=O)CCCCCCCn2ccc(Nc3[nH]nc(-c4ccc(NS(=O)(=O)C(F)F)c(O[C@@H](C)c5ccc(F)cc5)c4)c3C(N)=O)n2)C(C)(C)C)cc1")
"< 10 nM"
>>> recorded_measurement("Cc1ncsc1-c1ccc(CNC(=O)[C@@H]2C[C@@H](O)CN2C(=O)[C@@H](NC(=O)CCCn2ccc(Nc3[nH]nc(-c4ccc(NS(=O)(=O)C(F)F)c(O[C@@H](C)c5ccc(F)cc5)c4)c3C(N)=O)n2)C(C)(C)C)cc1")
"< 10 nM"
>>> recorded_measurement("Cc1ncsc1-c1ccc(CNC(=O)[C@@H]2C[C@@H](O)CN2C(=O)[C@@H](NC(=O)c2ccc(Cn3ccc(Nc4[nH]nc(-c5ccc(NS(=O)(=O)C(F)F)c(O[C@@H](C)c6ccc(F)cc6)c5)c4C(N)=O)n3)cc2)C(C)(C)C)cc1")
"< 10 nM"
>>> recorded_measurement("CCS(=O)(=O)Nc1ccc(-c2n[nH]c(Nc3ccnc(OCCOCCOCCOCCOCCNC(=O)COc4cccc5c4C(=O)N(C4CCC(=O)NC4=O)C5=O)c3)c2C(N)=O)cc1 (centres unmarked)")
"< 10 nM"
